# Target System: human serum albumin (HSA) (Homo sapiens)
# Construct: gene ALB; commercial, essentially fatty acid free, full-length mature monomer of 585 residues, dialyzed, used without further purification
# Sequence (P02768 25-609): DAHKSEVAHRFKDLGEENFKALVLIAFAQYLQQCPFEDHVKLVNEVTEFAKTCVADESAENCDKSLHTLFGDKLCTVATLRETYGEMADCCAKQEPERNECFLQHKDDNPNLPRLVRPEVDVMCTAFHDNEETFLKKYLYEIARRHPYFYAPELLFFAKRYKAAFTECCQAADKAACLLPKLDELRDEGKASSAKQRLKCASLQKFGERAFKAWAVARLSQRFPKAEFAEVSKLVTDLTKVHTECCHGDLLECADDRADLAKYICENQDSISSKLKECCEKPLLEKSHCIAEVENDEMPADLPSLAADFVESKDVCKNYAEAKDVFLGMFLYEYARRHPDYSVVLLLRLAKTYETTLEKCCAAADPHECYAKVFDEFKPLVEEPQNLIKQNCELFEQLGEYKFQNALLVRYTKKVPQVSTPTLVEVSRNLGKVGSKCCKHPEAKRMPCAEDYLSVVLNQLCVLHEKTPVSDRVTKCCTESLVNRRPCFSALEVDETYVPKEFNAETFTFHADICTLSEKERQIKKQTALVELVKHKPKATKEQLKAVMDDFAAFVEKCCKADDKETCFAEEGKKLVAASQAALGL
# Assay Remarks: UV absorption titration at […] nm, […]/dA vs […]/[S] plot
# Type: binding
Quantity Name: pKd
Formally, pKd is defined as -log10 of the concentration c, with c in mol/L.

Ask: Give reported pKd value for Oc1ccc2ccccc2c1 [2N, naphthalen–2–ol]
Reply: 4.17
